tested_system: GST-SND1(1-203) (Arabidopsis thaliana, UniProt Q9LPI7 1-203)
Sequence: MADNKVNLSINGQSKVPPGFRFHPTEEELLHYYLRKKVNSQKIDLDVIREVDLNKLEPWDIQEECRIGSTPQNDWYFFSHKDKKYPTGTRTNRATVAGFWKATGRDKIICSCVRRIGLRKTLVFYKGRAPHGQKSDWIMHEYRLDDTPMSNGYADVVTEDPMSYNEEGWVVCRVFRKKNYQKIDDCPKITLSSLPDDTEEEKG
method_summary: universal protein binding microarray (PBM); transcription factors of Arabidopsis thaliana; high values mean tight binding
details: protein: recombinant; tags: GST; chain copies: 2; dsDNA, one strand shown
Field: class. Source value: binding signal. Ranges: low interval (below 0.2 E-score), middle interval (0.2 E-score to below 0.3 E-score), high interval (0.3 E-score or more)

INSERT INTO measurements (sequence_code, tested_system, class_name) VALUES
  ('ACGGCACC', 'GST-SND1(1-203) (Arabidopsis thaliana, UniProt Q9LPI7 1-203)', 'middle interval'),
  ('AAGCAATC', 'GST-SND1(1-203) (Arabidopsis thaliana, UniProt Q9LPI7 1-203)', 'high interval'),
  ('GAGGAAAA', 'GST-SND1(1-203) (Arabidopsis thaliana, UniProt Q9LPI7 1-203)', 'low interval'),
  ('CGTACGCA', 'GST-SND1(1-203) (Arabidopsis thaliana, UniProt Q9LPI7 1-203)', 'high interval'),
  ('AAGTCAAG', 'GST-SND1(1-203) (Arabidopsis thaliana, UniProt Q9LPI7 1-203)', 'low interval'),
  ('TACGTCAA', 'GST-SND1(1-203) (Arabidopsis thaliana, UniProt Q9LPI7 1-203)', 'high interval'),
  ('GTACGGCA', 'GST-SND1(1-203) (Arabidopsis thaliana, UniProt Q9LPI7 1-203)', 'middle interval'),
  ('CGTAGACC', 'GST-SND1(1-203) (Arabidopsis thaliana, UniProt Q9LPI7 1-203)', 'low interval'),
  ('AATGCCGT', 'GST-SND1(1-203) (Arabidopsis thaliana, UniProt Q9LPI7 1-203)', 'low interval'),
  ('GAGACGTA', 'GST-SND1(1-203) (Arabidopsis thaliana, UniProt Q9LPI7 1-203)', 'high interval'),
  ('ACAAGTTA', 'GST-SND1(1-203) (Arabidopsis thaliana, UniProt Q9LPI7 1-203)', 'middle interval'),
  ('TACACGTA', 'GST-SND1(1-203) (Arabidopsis thaliana, UniProt Q9LPI7 1-203)', 'middle interval'),
  ('GAAGGTAA', 'GST-SND1(1-203) (Arabidopsis thaliana, UniProt Q9LPI7 1-203)', 'middle interval'),
  ('AATACTTA', 'GST-SND1(1-203) (Arabidopsis thaliana, UniProt Q9LPI7 1-203)', 'low interval'),
  ('AGGGTAAA', 'GST-SND1(1-203) (Arabidopsis thaliana, UniProt Q9LPI7 1-203)', 'low interval'),
  ('AAAGGAAA', 'GST-SND1(1-203) (Arabidopsis thaliana, UniProt Q9LPI7 1-203)', 'middle interval'),
  ('ATGCGTAA', 'GST-SND1(1-203) (Arabidopsis thaliana, UniProt Q9LPI7 1-203)', 'high interval'),
  ('CGTGCACG', 'GST-SND1(1-203) (Arabidopsis thaliana, UniProt Q9LPI7 1-203)', 'low interval'),
  ('ATACTTAA', 'GST-SND1(1-203) (Arabidopsis thaliana, UniProt Q9LPI7 1-203)', 'middle interval'),
  ('AGGGGAAA', 'GST-SND1(1-203) (Arabidopsis thaliana, UniProt Q9LPI7 1-203)', 'low interval'),
  ('ATCGCGTA', 'GST-SND1(1-203) (Arabidopsis thaliana, UniProt Q9LPI7 1-203)', 'high interval'),
  ('AATAGCGT', 'GST-SND1(1-203) (Arabidopsis thaliana, UniProt Q9LPI7 1-203)', 'high interval'),
  ('AGACGTAA', 'GST-SND1(1-203) (Arabidopsis thaliana, UniProt Q9LPI7 1-203)', 'high interval'),
  ('GTACGTCA', 'GST-SND1(1-203) (Arabidopsis thaliana, UniProt Q9LPI7 1-203)', 'high interval'),
  ('ACGTCACT', 'GST-SND1(1-203) (Arabidopsis thaliana, UniProt Q9LPI7 1-203)', 'high interval'),
  ('CTGACTTC', 'GST-SND1(1-203) (Arabidopsis thaliana, UniProt Q9LPI7 1-203)', 'low interval'),
  ('GTCAACAA', 'GST-SND1(1-203) (Arabidopsis thaliana, UniProt Q9LPI7 1-203)', 'low interval'),
  ('TAGCGTGA', 'GST-SND1(1-203) (Arabidopsis thaliana, UniProt Q9LPI7 1-203)', 'high interval'),
  ('AAGCAAGC', 'GST-SND1(1-203) (Arabidopsis thaliana, UniProt Q9LPI7 1-203)', 'high interval'),
  ('GAGGAAAC', 'GST-SND1(1-203) (Arabidopsis thaliana, UniProt Q9LPI7 1-203)', 'low interval'),
  ('GCGTAATA', 'GST-SND1(1-203) (Arabidopsis thaliana, UniProt Q9LPI7 1-203)', 'high interval'),
  ('ACGTCACC', 'GST-SND1(1-203) (Arabidopsis thaliana, UniProt Q9LPI7 1-203)', 'high interval'),
  ('ACGTAATA', 'GST-SND1(1-203) (Arabidopsis thaliana, UniProt Q9LPI7 1-203)', 'high interval'),
  ('ACACGCCT', 'GST-SND1(1-203) (Arabidopsis thaliana, UniProt Q9LPI7 1-203)', 'low interval'),
  ('ACAGGGAA', 'GST-SND1(1-203) (Arabidopsis thaliana, UniProt Q9LPI7 1-203)', 'low interval'),
  ('ACGTACGC', 'GST-SND1(1-203) (Arabidopsis thaliana, UniProt Q9LPI7 1-203)', 'middle interval'),
  ('ATTTCGTG', 'GST-SND1(1-203) (Arabidopsis thaliana, UniProt Q9LPI7 1-203)', 'low interval'),
  ('TGAAGGAA', 'GST-SND1(1-203) (Arabidopsis thaliana, UniProt Q9LPI7 1-203)', 'high interval'),
  ('TCACGCAA', 'GST-SND1(1-203) (Arabidopsis thaliana, UniProt Q9LPI7 1-203)', 'high interval'),
  ('GCACGTAA', 'GST-SND1(1-203) (Arabidopsis thaliana, UniProt Q9LPI7 1-203)', 'middle interval'),
  ('CGTGGTCA', 'GST-SND1(1-203) (Arabidopsis thaliana, UniProt Q9LPI7 1-203)', 'low interval'),
  ('ACACGTCT', 'GST-SND1(1-203) (Arabidopsis thaliana, UniProt Q9LPI7 1-203)', 'low interval'),
  ('AATTGACT', 'GST-SND1(1-203) (Arabidopsis thaliana, UniProt Q9LPI7 1-203)', 'low interval'),
  ('ACGAGAAA', 'GST-SND1(1-203) (Arabidopsis thaliana, UniProt Q9LPI7 1-203)', 'low interval'),
  ('TAAAGTCA', 'GST-SND1(1-203) (Arabidopsis thaliana, UniProt Q9LPI7 1-203)', 'low interval'),
  ('TGAAGCAA', 'GST-SND1(1-203) (Arabidopsis thaliana, UniProt Q9LPI7 1-203)', 'high interval'),
  ('CTTAAGGA', 'GST-SND1(1-203) (Arabidopsis thaliana, UniProt Q9LPI7 1-203)', 'middle interval'),
  ('GATGCGTA', 'GST-SND1(1-203) (Arabidopsis thaliana, UniProt Q9LPI7 1-203)', 'high interval'),
  ('AAGGGTAA', 'GST-SND1(1-203) (Arabidopsis thaliana, UniProt Q9LPI7 1-203)', 'low interval'),
  ('AGTAAGTA', 'GST-SND1(1-203) (Arabidopsis thaliana, UniProt Q9LPI7 1-203)', 'low interval'),
  ('AGCGTGTA', 'GST-SND1(1-203) (Arabidopsis thaliana, UniProt Q9LPI7 1-203)', 'middle interval'),
  ('TCACGCCA', 'GST-SND1(1-203) (Arabidopsis thaliana, UniProt Q9LPI7 1-203)', 'high interval'),
  ('ATTAAGTA', 'GST-SND1(1-203) (Arabidopsis thaliana, UniProt Q9LPI7 1-203)', 'middle interval'),
  ('CACGCAAC', 'GST-SND1(1-203) (Arabidopsis thaliana, UniProt Q9LPI7 1-203)', 'high interval'),
  ('AAAGCAAC', 'GST-SND1(1-203) (Arabidopsis thaliana, UniProt Q9LPI7 1-203)', 'high interval'),
  ('ATTCCGTA', 'GST-SND1(1-203) (Arabidopsis thaliana, UniProt Q9LPI7 1-203)', 'middle interval'),
  ('ACACGTAA', 'GST-SND1(1-203) (Arabidopsis thaliana, UniProt Q9LPI7 1-203)', 'middle interval'),
  ('ACTAAGTA', 'GST-SND1(1-203) (Arabidopsis thaliana, UniProt Q9LPI7 1-203)', 'middle interval'),
  ('AGCGTAAA', 'GST-SND1(1-203) (Arabidopsis thaliana, UniProt Q9LPI7 1-203)', 'high interval'),
  ('CCACACGC', 'GST-SND1(1-203) (Arabidopsis thaliana, UniProt Q9LPI7 1-203)', 'middle interval'),
  ('TACCTTAA', 'GST-SND1(1-203) (Arabidopsis thaliana, UniProt Q9LPI7 1-203)', 'middle interval'),
  ('TACACGCA', 'GST-SND1(1-203) (Arabidopsis thaliana, UniProt Q9LPI7 1-203)', 'high interval'),
  ('GACGTCAA', 'GST-SND1(1-203) (Arabidopsis thaliana, UniProt Q9LPI7 1-203)', 'low interval'),
  ('GACGTAAC', 'GST-SND1(1-203) (Arabidopsis thaliana, UniProt Q9LPI7 1-203)', 'high interval'),
  ('GAAAGGAA', 'GST-SND1(1-203) (Arabidopsis thaliana, UniProt Q9LPI7 1-203)', 'middle interval'),
  ('CTTTGACC', 'GST-SND1(1-203) (Arabidopsis thaliana, UniProt Q9LPI7 1-203)', 'low interval'),
  ('CAGTCAAA', 'GST-SND1(1-203) (Arabidopsis thaliana, UniProt Q9LPI7 1-203)', 'low interval'),
  ('TATCGTAA', 'GST-SND1(1-203) (Arabidopsis thaliana, UniProt Q9LPI7 1-203)', 'high interval'),
  ('AAGCAAAC', 'GST-SND1(1-203) (Arabidopsis thaliana, UniProt Q9LPI7 1-203)', 'high interval'),
  ('CCACGCTA', 'GST-SND1(1-203) (Arabidopsis thaliana, UniProt Q9LPI7 1-203)', 'high interval'),
  ('GTCACGCA', 'GST-SND1(1-203) (Arabidopsis thaliana, UniProt Q9LPI7 1-203)', 'middle interval'),
  ('GAGGGTAA', 'GST-SND1(1-203) (Arabidopsis thaliana, UniProt Q9LPI7 1-203)', 'low interval'),
  ('ATGACGTA', 'GST-SND1(1-203) (Arabidopsis thaliana, UniProt Q9LPI7 1-203)', 'high interval'),
  ('CTTGCGTC', 'GST-SND1(1-203) (Arabidopsis thaliana, UniProt Q9LPI7 1-203)', 'low interval'),
  ('ACGTTTTC', 'GST-SND1(1-203) (Arabidopsis thaliana, UniProt Q9LPI7 1-203)', 'high interval'),
  ('ATTGCTTC', 'GST-SND1(1-203) (Arabidopsis thaliana, UniProt Q9LPI7 1-203)', 'high interval'),
  ('AGAAGGAA', 'GST-SND1(1-203) (Arabidopsis thaliana, UniProt Q9LPI7 1-203)', 'low interval'),
  ('ATTGCTTG', 'GST-SND1(1-203) (Arabidopsis thaliana, UniProt Q9LPI7 1-203)', 'high interval'),
  ('ACGTAAGT', 'GST-SND1(1-203) (Arabidopsis thaliana, UniProt Q9LPI7 1-203)', 'high interval'),
  ('GATTGACC', 'GST-SND1(1-203) (Arabidopsis thaliana, UniProt Q9LPI7 1-203)', 'low interval'),
  ('TAAGGTCA', 'GST-SND1(1-203) (Arabidopsis thaliana, UniProt Q9LPI7 1-203)', 'low interval'),
  ('ACCGTTGA', 'GST-SND1(1-203) (Arabidopsis thaliana, UniProt Q9LPI7 1-203)', 'low interval'),
  ('GCAAGTAA', 'GST-SND1(1-203) (Arabidopsis thaliana, UniProt Q9LPI7 1-203)', 'high interval'),
  ('AAAGTCAA', 'GST-SND1(1-203) (Arabidopsis thaliana, UniProt Q9LPI7 1-203)', 'low interval'),
  ('AGTCAGAA', 'GST-SND1(1-203) (Arabidopsis thaliana, UniProt Q9LPI7 1-203)', 'low interval'),
  ('GCACGCAA', 'GST-SND1(1-203) (Arabidopsis thaliana, UniProt Q9LPI7 1-203)', 'high interval'),
  ('ACGTAAAG', 'GST-SND1(1-203) (Arabidopsis thaliana, UniProt Q9LPI7 1-203)', 'high interval');

FYI, the data here is from paper PMC4081100.
